Origin of values: patent US20200206233A1

Record: IC50 reported on UniProtKB O75874.
Sequence (O75874 whole entry): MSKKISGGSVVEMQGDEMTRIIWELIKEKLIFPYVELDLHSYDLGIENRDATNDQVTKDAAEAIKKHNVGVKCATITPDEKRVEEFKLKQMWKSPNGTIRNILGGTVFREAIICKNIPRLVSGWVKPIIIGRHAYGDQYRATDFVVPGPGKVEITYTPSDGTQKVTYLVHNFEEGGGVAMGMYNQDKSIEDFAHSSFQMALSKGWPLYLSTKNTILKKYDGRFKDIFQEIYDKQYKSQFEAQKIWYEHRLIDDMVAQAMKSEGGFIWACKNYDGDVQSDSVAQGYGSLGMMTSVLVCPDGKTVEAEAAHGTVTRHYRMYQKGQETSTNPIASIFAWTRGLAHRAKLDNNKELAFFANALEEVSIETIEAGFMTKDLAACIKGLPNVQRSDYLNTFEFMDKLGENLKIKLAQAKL

Task: Please indicate recorded IC50 of CC[C@H](Nc1ncnc(N2C(=O)OC[C@@H]2C(C)C)n1)c1ccc(Oc2ccccc2)cc1 measured with UniProtKB O75874.
Output: > 30 µM

Task: Please indicate recorded IC50 of CC(C)[C@H]1COC(=O)N1c1ncnc(N[C@@H](C)c2ccc(-c3ccc(Cl)cc3)cn2)n1 measured with UniProtKB O75874.
Output: > 30 µM

Task: Please indicate recorded IC50 of C[C@H](Nc1ncnc(N2C(=O)OC[C@@H]2c2ccccc2)n1)c1cn(-c2ccc(C(F)(F)F)cc2)cn1 measured with UniProtKB O75874.
Output: > 50 µM

Task: Please indicate recorded IC50 of CC[C@H]1COC(=O)N1c1nc(C)nc(N[C@@H](C)c2ccc(Oc3ccccc3)cc2)n1 measured with UniProtKB O75874.
Output: > 50 µM
